Consider the following binders; for each one, report its INS1e assay EC50 GLP-1 R n2.
Target: T1, GLP-1R (INS1e assay) (UniProt P32301 22-463, limits assumed)
T1 sequence (looked up): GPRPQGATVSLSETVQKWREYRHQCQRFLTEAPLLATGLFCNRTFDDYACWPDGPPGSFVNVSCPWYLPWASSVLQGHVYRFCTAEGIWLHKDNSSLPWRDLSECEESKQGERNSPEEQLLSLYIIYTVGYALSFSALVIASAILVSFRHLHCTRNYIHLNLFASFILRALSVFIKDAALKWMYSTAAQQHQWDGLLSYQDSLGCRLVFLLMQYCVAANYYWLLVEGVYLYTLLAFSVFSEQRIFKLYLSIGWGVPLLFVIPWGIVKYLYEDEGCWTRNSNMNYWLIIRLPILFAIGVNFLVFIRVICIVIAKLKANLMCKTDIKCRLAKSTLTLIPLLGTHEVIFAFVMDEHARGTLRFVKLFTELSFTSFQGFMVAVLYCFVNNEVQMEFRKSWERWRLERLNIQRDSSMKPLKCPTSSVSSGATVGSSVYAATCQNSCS
Assay: cell-based or functional assay
Starred links: 1 amine or outer side, 2 acyl side, 3 side chain; linkers in the order of their positions; H or OH if unused. Non-standard residues stand in square brackets, D forms with d. Groups on a side chain read outwards from the residue. Primed or numbered codes have the meaning given here. No end group written: not given here. *: point of attachment. Dodecylbenzoate = dodecylbenzoyl lipid group; γGlu = O=C(O)[C@H](CCC(=O)[*:2])N[*:1]; Stearoyl = CCCCCCCCCCCCCCCCCC(=O)*; αMeF = C[C@](N)(Cc1ccccc1)C(=O)O; αMeK = C[C@](N)(CCCCN)C(=O)O; Lauroyl = CCCCCCCCCCCC(=O)*; αMeS = C[C@](N)(CO)C(=O)O; PEG2′ = not defined here; Aib = CC(C)(N)C(=O)O; Ahx = NCCCCCC(=O)O
Reply with a number, then the unit it belongs to.

For H[Aib]EGS[αMeF]TSDV[αMeS]S[αMeF]LEGEAAKEFIK([PEG2′-PEG2′-γGlu-Stearoyl])WVVEGG-NH2 [SEQ ID NO 65] the binder record lists INS1e assay EC50 GLP-1 R n2 as 3740 pM

response.value for H[Aib]EGS[αMeF]TSDV[αMeS]S[αMeF]LEGEAAK([PEG2′-PEG2′-Lauroyl])E[αMeF]IA[αMeF]VV[αMeK]GG-NH2 [SEQ ID NO 135] (field: INS1e assay EC50 GLP-1 R n2) = 59.3 pM

INS1e assay EC50 GLP-1 R n2 measured on H[Aib]EGS[αMeF]TSDV[αMeS]S[αMeF]LEGEAA[αMeK]E[αMeF]IA[αMeF]VVK([PEG2′-PEG2′-Lauroyl])GG-NH2 [SEQ ID NO 171] = 175 pM

Query H[Aib]EGS[αMeF]TSDV[αMeS]S[αMeF]LEGEAA[αMeK]E[αMeF]IA[αMeF]VVK([Ahx-Ahx-Ahx-Dodecylbenzoate])GG-NH2 [SEQ ID NO 178] yields INS1e assay EC50 GLP-1 R n2 of 258 pM

INS1e assay EC50 GLP-1 R n2 measured on H[Aib]EGS[αMeF]TSDV[αMeS]SK([PEG2′-PEG2′-γGlu-Stearoyl])LEGEAA[αMeK]E[αMeF]IA[αMeF]VV[αMeK]GG-NH2 [SEQ ID NO 116] = 610 pM

Kindly note the recorded INS1e assay EC50 GLP-1 R n2 for H[Aib]EGS[αMeF]TSDV[αMeS]S[αMeF]LEGEK([PEG2′-PEG2′-γGlu-Stearoyl])A[αMeK]E[αMeF]IA[αMeF]VV[αMeK]GG-NH2 [SEQ ID NO 111] , which is 1110 pM

Item: H[Aib]EGS[αMeF]TSDV[αMeS]S[αMeF]LEGEAA[αMeK]EFIK([PEG2′-PEG2′-γGlu-Stearoyl])WVVEGG-NH2 [SEQ ID NO 68] | INS1e assay EC50 GLP-1 R n2: 4870 pM

Reported INS1e assay EC50 GLP-1 R n2 ( H[Aib]EGS[αMeF]TSDV[αMeS]S[αMeF]LEGEAAK([PEG2′-PEG2′-Stearoyl])E[αMeF]IA[αMeF]VV[αMeK]GG-NH2 [SEQ ID NO 153] ) = 61.2 pM

Per the record, H[Aib]EGS[αMeF]TSDV[αMeS]S[αMeF]LEGK([PEG2′-PEG2′-γGlu-Stearoyl])AA[αMeK]E[αMeF]IA[αMeF]VV[αMeK]GG-NH2 [SEQ ID NO 112] has INS1e assay EC50 GLP-1 R n2 of 476 pM

INS1e assay EC50 GLP-1 R n2 reported for this binder H[Aib]EGS[αMeF]TSDV[αMeS]S[αMeF]K([PEG2′-PEG2′-γGlu-Stearoyl])EGEAA[αMeK]E[αMeF]IA[αMeF]VV[αMeK]GG-NH2 [SEQ ID NO 115] : 494 pM
